System: Fibrinogen (Alexa647-labelled)
Test: fibrinogen binders on compound microarrays, profiling panel, artefact control for SMM control-protein annotation, biochemical, small-molecule microarray, 635/667 nm fluorescence (AID 1131);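 further: z-score merges 667 nm fluorescence with per-spot signal-to-noise over triplicate slides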
Details: fibrinogen-A647 binding fluorescence, higher = more signal
This section presents compounds with their documented composite z-score values.
Respond numerically, and do not add a unit to the figure.

compound	composite z-score
CC(CCN1CCCc2nc(C)c(C)cc21)=NOC[C@@H](O)COCc1ccco1	-2.04
CCOC(=O)[C@H](Cc1ccccc1)NC(=O)CCC1CC(OC(=O)NCCc2ccc(F)cc2)CC2(CCCC(COC(=O)NCCOc3ccccc3)O2)O1 (stereo not given in full)	0.855
CO[C@H]1C[C@@H]2C[C@H](O)CC(CC(=O)O[C@@H](C=CCC(C)C)C[C@@H]3CC[C@H](C)[C@@H](C1)O3)O2	0.707

# ---- query compound ----
Q. Data request, read-out composite z-score, for `O=C1C[C@H](c2ccccc2)[C@H](c2ccc(Br)cc2)O1`
A. -0.233

====

Target: Torsin-1A-interacting protein 1 (Homo sapiens) (UniProt Q5JTV8)
Sequence (Q5JTV8 whole entry, looked up): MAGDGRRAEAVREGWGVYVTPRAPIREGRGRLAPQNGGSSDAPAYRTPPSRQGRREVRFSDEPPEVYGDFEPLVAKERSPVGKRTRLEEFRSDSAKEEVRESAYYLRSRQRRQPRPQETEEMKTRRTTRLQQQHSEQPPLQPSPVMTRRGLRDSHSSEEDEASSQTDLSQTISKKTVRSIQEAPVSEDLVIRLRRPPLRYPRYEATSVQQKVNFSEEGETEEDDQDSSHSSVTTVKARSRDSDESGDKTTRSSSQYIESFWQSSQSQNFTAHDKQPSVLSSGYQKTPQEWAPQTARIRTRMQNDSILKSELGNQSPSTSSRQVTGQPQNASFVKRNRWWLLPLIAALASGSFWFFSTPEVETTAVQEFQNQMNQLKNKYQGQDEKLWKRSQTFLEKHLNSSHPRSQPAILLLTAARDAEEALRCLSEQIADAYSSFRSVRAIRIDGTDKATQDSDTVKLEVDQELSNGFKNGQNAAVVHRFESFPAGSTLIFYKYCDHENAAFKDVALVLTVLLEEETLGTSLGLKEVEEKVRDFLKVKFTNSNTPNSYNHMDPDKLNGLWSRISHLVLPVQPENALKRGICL
Assay: LAP1 binders from COS7 cell lysate, primary screen, small-molecule microarray, 635/667 nm fluorescence (AID 1116)
Details: COS7-hLAP1 lysate binding, 635 nm fluorescence, higher = more signal
Here, each record is paired with measured composite z-score data.
Just the number.

Observe how each entry below is paired with its result.
C#CCCCON=C1C[C@@H](O)[C@@H](O)[C@@H]2[C@@H]3C(=O)N([C@@H](C)c4ccccc4)C(=O)[C@@H]3CC[C@@H]12 -0.512
CCOC(=O)CCN1C(=O)[C@H]2[C@H]3[C@H](O)[C@H](O)CC(=NNC(=O)OCc4ccccc4)[C@H]3CC[C@H]2C1=O 0.264
CCN1C(=O)[C@H]2[C@H]3[C@H](O)[C@H](O)CC(=NOCC(C)C)[C@H]3CC[C@H]2C1=O 0.152
C#CCCCON=C1C[C@@H](O)[C@@H](O)[C@@H]2[C@@H]3C(=O)N(C4CCCCC4)C(=O)[C@@H]3CC[C@@H]12 0.366
O=C1[C@H]2[C@H]3[C@H](O)[C@H](O)CC(=NO[C@@H]4O[C@H](CO)[C@@H](O)[C@H](O)[C@H]4O)[C@@H]3CC[C@H]2C(=O)N1C[C@@H]1CCCO1 -0.0974

Q. Given the entry `COC(=O)[C@@H]1CC[C@H](C)[C@@H](c2ccc(C)cc2)N1C(=O)c1ccc(C=NOC[C@@H](O)[C@H]2O[C@@H]3OC(C)(C)O[C@@H]3[C@H]2O)cc1` , report its measured composite z-score.
A. 0.555

Q. Item `Cc1ccc(C(C)C)n1C(=O)OC(C)(C)C` has what recorded composite z-score?
A. 0.241

====

composite z-score listing for selected compounds.
Tested on: Human papillomavirus type 1a E7 protein (residues 1-88)
Experiment: HPV1a E7 small-molecule binders, primary screen, biochemical, small-molecule microarray, residues 1-88, 635 nm (AID 1129)
Details: small-molecule microarray binding, fluorescence 635 nm; higher = more signal

compound	composite z-score
O=C(NCCC[N+]1=CC=NC1c1ccccc1)N1CCCc2nc(-c3ccc(Br)cc3)ccc21 (centres undefined)	-0.493
CO[C@@H]1COC(=O)CC=C[C@H](C)[C@H](OC)COC(=O)[C@@H]2CCCN2C(=O)CC=C[C@H]1C	-0.838
CO[C@H]1COC(=O)[C@H](C)COC(=O)[C@@H](OCc2ccccc2)C=C[C@@H]1C	-1.09

Q. # input compound: `CC(C)=CCCC(C)=CCON=C1C[C@@H](O)[C@@H](O)[C@@H]2[C@@H]3C(=O)N(Cc4ccc5c(c4)OCO5)C(=O)[C@@H]3CC[C@H]12` ; wanted: its composite z-score
A. 0.838

====

Tested on: XIP peptide (Xip251-270)
Test: small-molecule binders of XIP peptide, primary screen, biochemical, small-molecule microarray, fluorescence 635/667 nm, 0.5 µg/mL protein (AID 1183)
Settings: small-molecule microarray binding, fluorescence 635 nm; higher = more signal
// False strictly below 0.3 in composite z-score; True otherwise

Example entries begin here.
compound	measuredTarget	group
O=C1[C@H]2[C@H]3[C@H](O)[C@H](O)CC(=NOCc4ccccc4)[C@@H]3CC[C@H]2C(=O)N1c1cccc(Oc2ccccc2)c1	XIP peptide (Xip251-270)	False
CC(C)=CCCC(C)=CCON=C1C[C@@H](O)[C@@H](O)[C@@H]2[C@@H]3C(=O)N(C4CCCCC4)C(=O)[C@@H]3CC[C@H]12	XIP peptide (Xip251-270)	True
COC(=O)[C@H](C)NC(=O)CCC1CC(OC(=O)NCc2cccc3ccccc23)CC2(CCCC(COC(=O)NCCOc3ccccc3)O2)O1 (stereo partly drawn)	XIP peptide (Xip251-270)	True
Cc1ccc2[nH]c3nc(CCCn4ccnc4-c4ccccc4)nnc3c2c1	XIP peptide (Xip251-270)	True
CC(C)CON=C1C[C@@H](O)[C@@H](O)[C@@H]2[C@@H]3C(=O)N(Cc4ccc5c(c4)OCO5)C(=O)[C@@H]3CC[C@@H]12	XIP peptide (Xip251-270)	False

Q. composite z-score >= 0.3 for `COCOc1ccc(Br)cc1C(=O)C=Cc1ccc2c(c1)OCO2` ?
A. True

Q. Decide: is the reported value of composite z-score for `CO[C@@H]1COC(=O)CC=C[C@H](C)[C@H](OC)COC(=O)[C@@H]2CCCN2C(=O)CC=C[C@H]1C` equal to or greater than 0.3?
A. True

Q. Would you say C=CCOCC1CN2[C@@H](CC[C@@H](C)[C@@H]2c2ccc(Br)cc2)C(=O)O1 (stereo partly drawn) shows composite z-score at minimum 0.3?
A. False

====

Measured composite z-score accompanies every entry in the list below.
Target: Follistatin (Homo sapiens) (UniProt P19883)
Sequence (P19883 whole entry, looked up): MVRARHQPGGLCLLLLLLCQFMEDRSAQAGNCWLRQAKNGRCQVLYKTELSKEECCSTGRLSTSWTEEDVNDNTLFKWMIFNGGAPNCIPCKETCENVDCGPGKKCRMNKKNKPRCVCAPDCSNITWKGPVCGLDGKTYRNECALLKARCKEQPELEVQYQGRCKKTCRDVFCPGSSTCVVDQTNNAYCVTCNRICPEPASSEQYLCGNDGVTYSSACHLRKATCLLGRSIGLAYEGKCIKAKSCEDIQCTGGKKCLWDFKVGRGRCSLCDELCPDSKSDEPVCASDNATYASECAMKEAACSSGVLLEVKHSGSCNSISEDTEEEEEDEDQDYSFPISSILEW
Assay: follistatin binders on small-molecule microarrays, primary screen, biochemical, small-molecule microarray, 635/667 nm fluorescence (AID 1132)
Conditions: FST binding, 635 nm fluorescence, higher = more signal

Below, 3 molecules whose answers are already recorded.
molecule	readoutName	observedValue
O=C(NCCC[N+]1=CC=NC1c1ccccc1)N1CCCc2nc(-c3ccc(Br)cc3)ccc21 (centres undefined)	composite z-score	0.733
CC(CCN1CCCc2nc(C)c(C)cc21)=NO[C@H](C)c1cn([C@@H]2COC[C@H]2O)nn1	composite z-score	0.622
CC(=O)OC[C@H]1O[C@@H](ON=C(C)CCN2CCCCc3nc(C)c(C)cc32)[C@H](OC(C)=O)[C@@H](OC(C)=O)[C@@H]1OC(C)=O	composite z-score	0.89

We now examine a further molecule.
Q. Item: `O=C(NN=C1C[C@@H](O)[C@@H](O)[C@@H]2[C@@H]3C(=O)N(Cc4ccccc4)C(=O)[C@@H]3CC[C@H]12)OCc1ccccc1` Test system: Follistatin (Homo sapiens) (UniProt P19883) Read-out: composite z-score Value: ?
A. 0.387

====

Target: Follistatin-related protein 3 (Homo sapiens) (UniProt O95633)
Sequence (O95633 whole entry, looked up): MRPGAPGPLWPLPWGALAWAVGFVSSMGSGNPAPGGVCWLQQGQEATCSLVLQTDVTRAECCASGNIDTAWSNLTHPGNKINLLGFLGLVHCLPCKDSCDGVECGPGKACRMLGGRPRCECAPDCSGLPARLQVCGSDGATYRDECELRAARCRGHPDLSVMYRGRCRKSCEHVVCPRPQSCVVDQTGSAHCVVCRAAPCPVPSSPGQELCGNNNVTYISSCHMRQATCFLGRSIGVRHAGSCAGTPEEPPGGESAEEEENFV
Experiment: FSTL3 binders on small-molecule microarrays, primary screen, biochemical, small-molecule microarray, 635 nm fluorescence (AID 1105);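 further: score merges emission near 667 nm and signal to noise per printed spot across three slides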
Details: FSTL3 binding, higher = more signal
readoutName: composite z-score

Some entries whose results are on file:
molecule	observedValue
CCCNC(=O)OC[C@H]1O[C@H](CCON=C[C@@H](NS(=O)(=O)c2ccc(C)cc2)[C@H](C)C=CCC(=O)OC)C=C[C@@H]1Oc1ccc(OC)cc1	-0.293
Cc1cc(C)c(-c2cc([C@H](C)ON=C[C@@H](C)[C@H](OCc3ccccc3)C(C)C)on2)c(C)c1	-0.0283
C[C@@H](c1ccccc1)N1C(=O)[C@H]2[C@H]3[C@H](O)[C@H](O)CC(=NOC[C@@H](O)COCc4ccco4)[C@H]3CC[C@H]2C1=O	1.14
CC(C)(C)N1C(=O)[C@H]2[C@@H]3C(=CC[C@H]2C1=O)C(=O)[C@H]1O[C@H]1[C@H]3O	-0.162
CCCCOC(OCCCC)C(O)CSc1ccc2ccccc2c1 (stereo not drawn)	0.589

Q. Entry under review: `COc1ccc(O[C@H]2C=C[C@@H](c3ccccc3)O[C@@H]2CO)cc1` . Reported composite z-score?
A. 0.318

Q. Value lookup for composite z-score; key = `C#CCCCON=C1C[C@@H](O)[C@@H](O)[C@@H]2[C@@H]3C(=O)N(C[C@@H]4CCCO4)C(=O)[C@@H]3CC[C@H]12`
A. 0.457

Q. Dear colleague, I am looking for the recorded composite z-score of the following molecule: `CON=C(C)CCC(=O)OC[C@H]1O[C@H](C#Cc2ccccc2)C=C[C@@H]1Oc1ccc(C)cc1`
A. 0.407

====

System: Inhibin beta A chain (activin A)
Experiment: INHBA (activin A) binders on microarrays, primary screen, biochemical, small-molecule microarray, 635 nm fluorescence scan (AID 1107);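 further: mouse activin A protein probed at 4.33 µg/mL on printed slides; score merges bound-protein fluorescence near 667 nm with spot signal-to-noise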
Details: small-molecule microarray binding, higher = more signal
Quick reference: composite z-score of the listed items.
Form field (numeric): enter value without unit.

Below: 2 compounds and their reported composite z-score.
compound	observedValue
COC(=O)C1=C(C)N(Cc2ccccc2)C2=C3C(=O)OCC[C@@H]3[C@@](O)(C(=O)OC)C(=O)N2[C@@H]1c1ccccc1	0.312
O=C1C2=CC[C@H]3C(=O)N(C4CCCCC4)C(=O)[C@H]3[C@H]2[C@H](O)[C@@H]2O[C@H]12	-0.185

Q. Requested read-out: composite z-score. Entry: CCOC(=O)[C@H](Cc1ccccc1)NC(=O)CCC1CC(OC(=O)NCc2cccc3ccccc23)CC2(CCCC(COC(=O)NCCc3ccc(Cl)cc3)O2)O1 (stereo not given in full)
A. 0.145

Q. Would you kindly share the measured composite z-score for `O=C1[C@H]2[C@H]3[C@H](O)[C@H](O)CC(=NOC[C@@H](O)COCc4ccco4)[C@@H]3CC[C@H]2C(=O)N1Cc1ccc2c(c1)OCO2` ?
A. 0.506
